Listing of entries alongside the reported clearance.
# ASSAY: Clearance in Sprague-Dawley rat at […], iv measured after 24 hrs by LC/MS/MS method
# Type: ADME, organism-based
# CONDITIONS_USED: in vivo
OUTCOME_MEASURE: clearance

In [3]: df
Out[3]:
                                        smi  recorded_measurement
0  COCCCOc1cc2c(cc1COC)-c1cc(=O)c(C(=O)O)cn1N1[C@@H]2CCC1(C)C           0.27 L/h/kg
1  CC(C)(C)N1Cc2cc(C#Cc3cnc(N4CC5CCC(C4)N5C4COC4)nc3)c(Cl)cc2-c2cc(=O)c(C(=O)O)cn21            0.9 L/h/kg
2  COCCCOc1cc2c(cc1C1CC1)-c1cc(=O)c(C(=O)O)cn1N1[C@@H]2CCC1(C)C              1 L/h/kg
3  COCCCOc1cc2c(cc1OC)-c1cc(=O)c(C(=O)O)cn1N1[C@@H]2CCC1(C)C              1 L/h/kg
4  CC(C)(C)N1Cc2cc(OCC3COC3)c(Cl)cc2-c2cc(=O)c(C(=O)O)cn21            1.2 L/h/kg
5  CC(C)(C)N1Cc2cc(OCC3CC(F)(F)C3)c(Cl)cc2-c2cc(=O)c(C(=O)O)cn21           0.25 L/h/kg

====

# ASSAY: MRT in Beagle dog at 0.5 mg/kg, iv
# Assay type: ADME, organism-based, Canis lupus familiaris
# CONDITIONS_USED: in vivo
OUTCOME_MEASURE: MRT

>>> df
                                        smi  recorded_measurement
0  COCCCOc1cc2c(cc1COC)-c1cc(=O)c(C(=O)O)cn1N1[C@@H]2CCC1(C)C                 3.6 h

====

# ASSAY: Clearance in Beagle dog at 0.5 mg/kg, iv
# Type: ADME, organism-based, Canis lupus familiaris
# CONDITIONS_USED: in vivo
OUTCOME_MEASURE: clearance (mL/min/kg)

                                        smi  units_label  recorded_measurement
0  COCCCOc1cc2c(cc1COC)-c1cc(=O)c(C(=O)O)cn1N1[C@@H]2CCC1(C)C    mL/min/kg                     4

All values here come from ChEMBL document CHEMBL5335870.
